Examples of sequences with documented apparent KD of MS2 coat protein follow.
System: MS2 coat protein
Experiment: apparent KD of MS2 coat protein, switch ON state; designed switch direction (-1 OFF switch, 1 ON switch): -1; higher = weaker reporter binding
Settings: FMN input: 0 or 200 uM; Eterna round: R93 (includes R88 designs)
Supply the numeric figure in nM, leaving out any unit text.

Worked set:
**Query** Supply measured apparent KD of MS2 coat protein of AAAAAGUGAGGAUAUACAUGAGGAUCACCCAUGUGAAGGGAAGAGAGAGAGAGAGAGAGUAGAAGGCACAAAAA [Default title] in your reply.
**Result** 98.8

**Query** Input AGAAAGUCAGGAUAUAUGCGAAAAAUAAAAAAAAUAAAAACAUAGAAGGGACAUGAGGAUCACCCAUGUUAAGA [Mat - Exclusion 4 - Mayanna - D136] , output reported apparent KD of MS2 coat protein.
**Result** 50

**Query** State, in one line, measured apparent KD of MS2 coat protein of AGCUAGUCAGGAUAUACGAACAUGUCAGGAGACGUGAAGGGACAUGAGGAUCACCCAUGUAGAAGGGACUAGCG [74%, Web mod - With 3 more G's]
**Result** 37.2

**Query** Give the reported value of apparent KD of MS2 coat protein for this record: AAAAAGUCAGGAUAUGUAGCAUGAUACGAAAGUAUCAUGCUACAGAAGGGACAUGAGGAUCACCCAUGUGAUCA [Ex4: 938]
**Result** 365

**Query** Recall and state the measured apparent KD of MS2 coat protein for AAGAAAGGAGGAUAUACAUGAGGAUCACCCAUGUAAAAGAAAGAAAGGGAAAAGAAAAGUAGAAGGCCUAAGAA [Shoshenq IV] .
**Result** 35.3

**Query** Read the entry AAAAAGCGAGGAUAUACAUAGCUAAGACAAAUAAGCAAGGGACAUGAGGAUCACCCAUGUAGAAGGCGCAAAAA [Exclusion 2-01... 60% 1] and write its reported apparent KD of MS2 coat protein.
**Result** 34.7

**Query** For the sequence AACUGUACAGGAUAUACAUGAGGAUCACCCAUGUGAGAAUUAAGUGGGAAACCACAAAGUAGAAGGGUACAGGA [Mat - Exclusion 3 - JL mod - D19] , report apparent KD of MS2 coat protein.
**Result** 29.1

**Query** Tell me its apparent KD of MS2 coat protein given AAUAAACAUGAGGAUCACCCAUGUGAGGAUAUGGUAUAAUAAGGACAGUAAUGAUAAACCAGAAGGCACAAAUA [JR_Exc001_Sub1102] as the entry.
**Result** 30.5

**Query** Return value of apparent KD of MS2 coat protein for input AAAGGGUCAGGAUAUCGUUUAAUAAUAAAAUAAAUAAAGAACGAGAAGGGACAUGAGGAUCACCCAUGUAUAAA [May 76] , no commentary.
**Result** 65.3

**Query** Answer with reported apparent KD of MS2 coat protein of AAGAAGUGAGGAUAUCGAAGACAAAAAAAAAAAAAGUCGAACGAGAAGGCACAUGAGGAUCACCCAUGUAAGAA [shorter stack]
**Result** 37.7

Further cases:
**Query** Indicate the recorded apparent KD of MS2 coat protein value for this sequence: AAAAAAGGAGGAUAUACGAACAUGUCAAAAGACGUGAAGGGACAUGAGGAUCACCCAUGUAGAAGGCCUAAAAA [JL Part Open 34]
**Result** 35.4

**Query** Supply apparent KD of MS2 coat protein value. Item: ACCAAUGGAGGAUAUACAUGAGGAUCACCCAUGUUUAUCCUACAUAGGUGAAAAAUAUGUAGAAGGCCAUAGGA [EX3 238: Super Stable 38]
**Result** 13.2

**Query** For the sequence AAAACUGGAGGAUAUACAUGAGGAUCACCCAUGUGUGGAUGAGCUGAGACGGCAUCACGUAGAAGGCCACAAAA [Gilly Gone Silly 39 - Jieux - Exclusion 3] , report apparent KD of MS2 coat protein.
**Result** 33.2

**Query** Please report apparent KD of MS2 coat protein for the following sequence: UAAAAGCGAGGAUAUACAUGAGGAUCACCCAUGUGAAAGAAAAAUAAAAAAAAAAAAAGUAGAAGGCGCUAAAA [Ex 3 #2]
**Result** 58.9

Origin of the recorded values: the supplement of paper PMC9170038
